TARGET UNDER TEST: rabbit activated Protein C (rabbit) (UniProt Q28661)
METHOD DESCRIPTION: ELISA, hIgG1
REPORTED METRIC: pEC50
// field semantics: pEC50 = negative decimal log of concentration (mol/L)

Could you share which pEC50 value was measured for C22J13 hIgG1 (antibody, V domains shown) VH: EVQLLESGGGLVQPGGSLRLSCAASGFTFSSNYMSWVRQAPGKGLEWVAVISYDGSNKYYADSVKGRFTISRDNSKNTLYLQMNSLRAEDTAMYYCALTGRSGWMRFPNWFDPWGQGTLVTVTS VL: QSVLTQPPSASGTPGQRVTISCSGSDSNIGSNAVNWYQQLPGTAPKLLIYDNNKRPSGVPDRFSGSKSGTSASLAISGLRSEDEADYYCSSYTSSNTVVFGGGTKLTVLG ?
9.22
